- METHOD DESCRIPTION: Distribution coefficient, log D of the compound at pH 7.4
- Assay type: physicochemical
- CONDITION DETAILS: octanol/water
OBSERVATION TYPE: logD
API note: the answer field is a bare number with no unit suffix.

(Q) Field request: logD | item: `Cc1nnc(C)n1-c1ccc(O[C@H]2c3cc(Cl)cc(Cl)c3C[C@@H]2N2CC[C@@H](O)C2)c(F)c1.O=P(O)(O)O`
(A) 2.06

###

- METHOD DESCRIPTION: Oral bioavailability in urethane-chloralose anesthetized pig at 3 mg/kg, id
- Format: ADME, organism-based, Sus scrofa
- CONDITION DETAILS: in vivo
OBSERVATION TYPE: bioavailability (%)
Provide only the numeric value, understood in %.

(Q) # lookup: bioavailability of `Cc1nnc(C)n1-c1ccc(O[C@H]2c3cc(Cl)cc(Cl)c3C[C@@H]2N2CC[C@@H](O)C2)c(F)c1.O=P(O)(O)O`
(A) 61

###

- METHOD DESCRIPTION: Lipophilicity, log P of the compound
- Format: physicochemical
- CONDITION DETAILS: octanol/water
OBSERVATION TYPE: logP
Form: value (number only, do not type unit).

(Q) For `Cc1nnc(C)n1-c1ccc(O[C@H]2c3cc(Cl)cc(Cl)c3C[C@@H]2N2CC[C@@H](O)C2)c(F)c1.O=P(O)(O)O` , what is its reported logP?
(A) 2.05

###

- METHOD DESCRIPTION: Permeability in human Caco2/TC7 cells assessed as total flux at 20 uM incubated for 2 hrs by LC-MS/MS method
- Type: ADME, cell-based
- CONDITION DETAILS: Caco-2, read-out: permeability
Papp at 2 h, 20 µM vs 8 ×10⁻⁶ cm/s: at or above is T, below is F.

Worked set:
| MOLECULE | DISCRETE LABEL |
| --- | --- |
| CN1C[C@@H]2CN([C@H]3Cc4c(Cl)cc(Cl)cc4[C@@H]3Oc3ccc(S(C)(=O)=O)cc3)C[C@@H]2C1 | F |
| CS(=O)(=O)c1ccc(O[C@H]2c3cc(Cl)cc(Cl)c3C[C@@H]2N2CC[C@@H](O)C2)cc1 | T |
| CS(=O)(=O)c1ccc(O[C@H]2c3cc(Cl)cc(F)c3C[C@@H]2N2CCCC2)cc1 (racemic) | T |

(Q) Can `N[C@@H]1CCCN([C@H]2Cc3c(Cl)cc(Cl)cc3[C@@H]2Oc2ccc(-n3cncn3)cc2)C1` be said to have Papp at 2 h, 20 µM at or above 8 ×10⁻⁶ cm/s?
(A) F

(Q) # check: Papp at 2 h, 20 µM of `CS(=O)(=O)c1ccc(O[C@H]2c3ccccc3C[C@@H]2N2CCCC2)cc1` is greater than or equal to 8 ×10⁻⁶ cm/s
(A) T

(Q) Evaluate `COCCN1CCCN([C@H]2Cc3c(Cl)cc(Cl)cc3[C@@H]2Oc2ccc(S(C)(=O)=O)cc2)CC1` : Papp at 2 h, 20 µM at minimum 8 ×10⁻⁶ cm/s?
(A) T

(Q) Please indicate if the recorded Papp at 2 h, 20 µM for `CS(=O)(=O)c1ccc(O[C@H]2c3cc(Cl)cc(Cl)c3C[C@@H]2N2CCNCC2)cc1` meets or exceeds 8 ×10⁻⁶ cm/s.
(A) F

(Q) Check if Papp at 2 h, 20 µM >= 8 ×10⁻⁶ cm/s (inclusive). Item: `Cc1nnc(C)n1-c1ccc(O[C@H]2c3cc(Cl)cc(Cl)c3C[C@@H]2N2CCCNCC2)cc1`
(A) F

###

- TARGET ENTITY: Sodium/hydrogen exchanger 3 (Homo sapiens)
- Sequence (P48764 whole entry): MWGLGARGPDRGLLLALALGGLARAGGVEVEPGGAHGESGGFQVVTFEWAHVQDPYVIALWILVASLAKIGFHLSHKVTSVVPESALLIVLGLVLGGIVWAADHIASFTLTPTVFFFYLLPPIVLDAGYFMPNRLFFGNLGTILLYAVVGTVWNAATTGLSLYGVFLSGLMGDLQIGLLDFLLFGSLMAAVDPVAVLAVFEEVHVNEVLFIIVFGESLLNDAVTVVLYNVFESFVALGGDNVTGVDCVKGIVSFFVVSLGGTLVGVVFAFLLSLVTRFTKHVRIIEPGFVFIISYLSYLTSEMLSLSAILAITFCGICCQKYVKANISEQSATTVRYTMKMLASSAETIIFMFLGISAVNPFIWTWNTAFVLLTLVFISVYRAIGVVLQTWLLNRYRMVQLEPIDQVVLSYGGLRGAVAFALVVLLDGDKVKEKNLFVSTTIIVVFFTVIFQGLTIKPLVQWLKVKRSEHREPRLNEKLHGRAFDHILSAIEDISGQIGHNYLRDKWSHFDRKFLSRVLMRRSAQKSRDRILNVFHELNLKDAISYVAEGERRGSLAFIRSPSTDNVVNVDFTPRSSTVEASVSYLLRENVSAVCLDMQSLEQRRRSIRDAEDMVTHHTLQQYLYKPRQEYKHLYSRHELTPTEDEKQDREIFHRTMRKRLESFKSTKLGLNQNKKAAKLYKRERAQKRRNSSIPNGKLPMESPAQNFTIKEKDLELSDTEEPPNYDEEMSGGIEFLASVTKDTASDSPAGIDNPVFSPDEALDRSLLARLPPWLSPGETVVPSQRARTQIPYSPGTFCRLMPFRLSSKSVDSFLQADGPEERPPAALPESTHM
- METHOD DESCRIPTION: Inhibition of human NHE3 expressed in LAP1 cell assessed as intracellular pH recovery measured for 2 mins by CECF-AM dye based FLIPR assay
OBSERVATION TYPE: IC50 (µM)
# value in µM; strip the unit string

// below: answered molecules
| MOLECULE | OBSERVATION TYPE | ENDPOINT VALUE |
| --- | --- | --- |
| C[C@@H]1CN([C@H]2Cc3c(Cl)cc(Cl)cc3[C@@H]2Oc2ccc(S(C)(=O)=O)cc2)CCN1 | IC50 | 0.02 |
| CS(=O)(=O)c1ccc(O[C@H]2c3c(ccc(Cl)c3Cl)C[C@@H]2N2CCCNCC2)cc1 | IC50 | 0.043 |

Please look at the following molecule next.
(Q) Field request: IC50 | item: `Cc1nnc(C)n1-c1ccc(O[C@H]2c3cc(Cl)ccc3C[C@@H]2N2CCCC2)c(Cl)c1`
(A) 0.094

###

Known Papp at 2 h, 20 µM of a selection of compounds
- METHOD DESCRIPTION: Permeability in human Caco2/TC7 cells assessed as total flux at 20 uM incubated for 2 hrs by LC-MS/MS method
- Format: ADME, cell-based
- CONDITION DETAILS: Caco-2, read-out: permeability
Provide the reading as a plain figure in ×10⁻⁶ cm/s.

As a guide, the following entries are already answered.
| COMPOUND | U | ENDPOINT VALUE |
| --- | --- | --- |
| Cn1ccn(-c2cccc(O[C@H]3c4ccccc4C[C@@H]3N3CCCC3)c2)c1=O | ×10⁻⁶ cm/s | 9.8 |
| CN1CCCN([C@H]2Cc3c(Cl)cc(Cl)cc3[C@@H]2Oc2ccc(S(C)(=O)=O)cc2)CC1 | ×10⁻⁶ cm/s | 6.4 |
| CS(=O)(=O)c1ccc(O[C@H]2c3ccccc3C[C@@H]2N2CCCC2)c(Cl)c1Cl | ×10⁻⁶ cm/s | 19.2 |

(Q) Which value of Papp at 2 h, 20 µM has been reported for `CC(=O)Nc1cccc(O[C@H]2c3ccccc3C[C@@H]2N2CCC[C@@H](N)C2)c1` in the records?
(A) 0.03

(Q) Papp at 2 h, 20 µM lookup needed for `Cc1nnc(C)n1-c1ccc(O[C@H]2c3cc(Cl)cc(Cl)c3C[C@@H]2N2CC[C@@H](O)C2)c(F)c1` , thanks.
(A) 2.8

(Q) Using the record for `NC(=O)Nc1cccc(O[C@H]2c3ccccc3C[C@@H]2N2CCC[C@@H](N)C2)c1` , report its Papp at 2 h, 20 µM.
(A) 0.04

(Q) Report Papp at 2 h, 20 µM for `N[C@@H]1CCCN([C@H]2Cc3ccccc3[C@@H]2Oc2ccc(S(N)(=O)=O)c(Cl)c2Cl)C1` please.
(A) 0.08

(Q) Quick check: Papp at 2 h, 20 µM of CS(=O)(=O)c1ccc(OC2c3cc(Cl)cc(Cl)c3CC2N2C[C@H]3CNC[C@H]3C2)cc1 (single isomer, unassigned) ?
(A) 0.07

(Q) // lookup Papp at 2 h, 20 µM for `Cc1nnc(C)n1-c1ccc(O[C@H]2c3cc(Cl)ccc3C[C@@H]2N2CCCC2)c(Cl)c1`
(A) 16.2

###

- METHOD DESCRIPTION: Drug metabolism in rat hepatic microsomes assessed as compound lability by LC-MS/MS method
- Type: ADME, Microsome
- CONDITION DETAILS: liver microsomes, read-out: Drug metabolism
OBSERVATION TYPE: metabolised (%)
Number in %, nothing else.

(Q) Fill in the blank: the reported metabolised of `Cc1nnc(C)n1-c1ccc(O[C@H]2c3cc(Cl)cc(Cl)c3C[C@@H]2N2CC[C@@H](O)C2)c(F)c1.Cl` is ____.
(A) 25
